assay-details: Plasma pharmacokinetics after a single s.c. dose
Type: in vivo, human
experimental-setup: human, plasma, sc, 10 mg, AUC0-last, median, 10 mg single s.c. dose, healthy adults, NCA, N = 6
*1 amine or outer side, *2 acyl side, *3 side chain or, on linkers, in order; H or OH if unused. Where a SMILES comes first, the peptide text is derived from it. Bridges are numbered along the chain shown (N, C = ends). [ ]: non-standard residue; d: D form. The star is where a group is joined. Orn(4R-OH,5R-OCH2CH2NMe3+) = C[N+](C)(C)CCO[C@@H](N[*:3])[C@H](O)C[C@H](N[*:1])C(=O)[*:2]; pTerphenylCO(4''-OnC5H11) = CCCCCOc1ccc(-c2ccc(-c3ccc(C(=O)*)cc3)cc2)cc1; hTyr(3S-OH,4S-OH) = N[C@H](C(=O)O)[C@H](O)[C@@H](O)c1ccc(O)cc1; Pro(3S-OH,4S-Me) = C[C@H]1CN[C@H](C(=O)O)[C@H]1O; Hyp = O=C(O)[C@@H]1C[C@@H](O)CN1
observed-property: AUC(0-t) (ng·h/mL)
I only need the number, in ng·h/mL, no unit after it.

Exercise: If you can, please state the reported AUC(0-t) value of CCCCCOc1ccc(-c2ccc(-c3ccc(C(=O)N[C@H]4C[C@@H](O)[C@@H](OCC[N+](C)(C)C)NC(=O)[C@@H]5[C@@H](O)[C@@H](C)CN5C(=O)[C@H]([C@@H](C)O)NC(=O)[C@H]([C@H](O)[C@@H](O)c5ccc(O)cc5)NC(=O)[C@@H]5C[C@@H](O)CN5C(=O)[C@H]([C@@H](C)O)NC4=O)cc3)cc2)cc1 [rezafungin] ({pTerphenylCO(4''-OnC5H11)}-[Orn(4R-OH,5R-OCH2CH2NMe3+)]T[Hyp][hTyr(3S-OH,4S-OH)]T[Pro(3S-OH,4S-Me)]; lactam 1-C) .
Key: 32000

* * *

assay-details: Plasma pharmacokinetics after a single s.c. dose
Type: in vivo, human
experimental-setup: human, plasma, sc, 10 mg, T max, mean, 10 mg single s.c. dose, healthy adults, NCA, N = 6
*1 amine or outer side, *2 acyl side, *3 side chain or, on linkers, in order; H or OH if unused. Where a SMILES comes first, the peptide text is derived from it. Bridges are numbered along the chain shown (N, C = ends). [ ]: non-standard residue; d: D form. The star is where a group is joined. Orn(4R-OH,5R-OCH2CH2NMe3+) = C[N+](C)(C)CCO[C@@H](N[*:3])[C@H](O)C[C@H](N[*:1])C(=O)[*:2]; pTerphenylCO(4''-OnC5H11) = CCCCCOc1ccc(-c2ccc(-c3ccc(C(=O)*)cc3)cc2)cc1; hTyr(3S-OH,4S-OH) = N[C@H](C(=O)O)[C@H](O)[C@@H](O)c1ccc(O)cc1; Pro(3S-OH,4S-Me) = C[C@H]1CN[C@H](C(=O)O)[C@H]1O; Hyp = O=C(O)[C@@H]1C[C@@H](O)CN1
observed-property: Tmax (h)
I only need the number, in h, no unit after it.

Exercise: If you can, please state the reported Tmax value of CCCCCOc1ccc(-c2ccc(-c3ccc(C(=O)N[C@H]4C[C@@H](O)[C@@H](OCC[N+](C)(C)C)NC(=O)[C@@H]5[C@@H](O)[C@@H](C)CN5C(=O)[C@H]([C@@H](C)O)NC(=O)[C@H]([C@H](O)[C@@H](O)c5ccc(O)cc5)NC(=O)[C@@H]5C[C@@H](O)CN5C(=O)[C@H]([C@@H](C)O)NC4=O)cc3)cc2)cc1 [rezafungin] ({pTerphenylCO(4''-OnC5H11)}-[Orn(4R-OH,5R-OCH2CH2NMe3+)]T[Hyp][hTyr(3S-OH,4S-OH)]T[Pro(3S-OH,4S-Me)]; lactam 1-C) .
Key: 120

Attribution: paper PMC9283735
